Attribution: ChEMBL document CHEMBL4837249

testProtocol: AUC (0 to t) in BALB/c mouse at 2 mg/kg, iv measured up to 24 hrs by LC-MS/MS analysis
Assay type: ADME, organism-based
Set-up: route intravenous, dose 2 mg/kg, time <=24
conditionDetails: in vivo
reportedMetric: AUC(0-t) at 24 h

# input State the recorded AUC(0-t) at 24 h for this entry: Cc1ccc(C(=O)Nc2cc(C(F)(F)F)cc(C(F)(F)F)c2)cc1C#Cc1cc(-c2cnn(C)c2)cnc1N
# output 2130 ng·h/mL

====

Examples of compounds with documented IC50 follow.
studySystem: Tyrosine-protein kinase Blk (Homo sapiens, UniProt P51451)
Sequence (P51451 whole entry): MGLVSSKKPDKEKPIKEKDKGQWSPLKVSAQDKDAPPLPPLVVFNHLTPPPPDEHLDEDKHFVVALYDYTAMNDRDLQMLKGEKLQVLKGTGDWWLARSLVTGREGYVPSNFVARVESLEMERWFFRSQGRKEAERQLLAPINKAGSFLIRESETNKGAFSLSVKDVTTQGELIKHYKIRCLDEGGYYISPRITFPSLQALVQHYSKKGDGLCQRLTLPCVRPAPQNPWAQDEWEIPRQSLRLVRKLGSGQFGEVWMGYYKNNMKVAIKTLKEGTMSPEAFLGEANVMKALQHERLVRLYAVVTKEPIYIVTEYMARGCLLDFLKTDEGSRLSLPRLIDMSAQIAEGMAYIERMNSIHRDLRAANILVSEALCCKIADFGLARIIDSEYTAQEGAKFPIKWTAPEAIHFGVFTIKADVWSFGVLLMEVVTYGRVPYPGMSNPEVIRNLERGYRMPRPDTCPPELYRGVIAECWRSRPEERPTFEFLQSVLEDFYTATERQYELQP
testProtocol: Inhibition of human full length recombinant BLK by radiometric scintillation counting analysis

molecule: Cc1ccc(C(=O)Nc2cc(C(F)(F)F)cc(C(F)(F)F)c2)cc1C#Cc1cc(-c2cnn(C)c2)cnc1N
result: 56 nM

# input Request the reported IC50 associated with Cc1ccc(C(=O)Nc2ccc(Cl)cc2Cl)cc1C#Cc1cc(-c2cnn(C)c2)cnc1N
# output > 1000 nM
